target: Tyrosine-protein kinase Lck (Homo sapiens) (UniProt P06239); experiment: Inhibition of Lck at 10 uM by HTRF assay relative to control
Sequence (P06239 2-509 limits assumed): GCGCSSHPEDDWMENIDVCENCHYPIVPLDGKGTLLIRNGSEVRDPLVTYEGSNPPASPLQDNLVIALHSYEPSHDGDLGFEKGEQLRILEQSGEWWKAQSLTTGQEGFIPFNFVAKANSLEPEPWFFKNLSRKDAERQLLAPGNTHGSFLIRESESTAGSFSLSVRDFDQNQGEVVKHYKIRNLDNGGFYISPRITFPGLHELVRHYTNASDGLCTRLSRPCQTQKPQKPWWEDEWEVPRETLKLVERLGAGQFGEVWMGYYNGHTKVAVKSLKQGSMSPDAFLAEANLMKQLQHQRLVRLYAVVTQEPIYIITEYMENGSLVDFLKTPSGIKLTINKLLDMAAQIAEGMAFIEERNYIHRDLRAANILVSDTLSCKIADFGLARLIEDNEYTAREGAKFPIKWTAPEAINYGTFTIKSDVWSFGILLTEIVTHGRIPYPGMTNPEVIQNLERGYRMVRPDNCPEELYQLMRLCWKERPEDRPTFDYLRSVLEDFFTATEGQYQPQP
readout.label: inhibition (%)
The reply should be a number in %, with the unit left off.

**Query** Any idea what inhibition was measured for COc1cccc(Nc2cc(N3CCC[C@H]3C(=O)NCCc3ccc(O)cc3)nc(N)n2)c1 ?
**Result** 0

**Query** Same thing, different molecule: CN(CCc1ccccn1)C(=O)c1cccc(Nc2nccc(Nc3ccc4ncsc4c3)n2)c1
**Result** 37

**Query** Same thing, different molecule: CN(CCc1ccccn1)C(=O)[C@@H]1CCCN1c1nccc(Nc2ccccc2)n1
**Result** 0

**Query** Same thing, different molecule: Cc1cccc(Oc2ccnc(N3CCN(CC(=O)Nc4cccc5c4CCCC5)CC3)n2)c1
**Result** 0

**Query** Same thing, different molecule: Cc1cccc(N(C)c2cc(Nc3cccc(C(=O)N(C)CCc4ccccn4)c3)ncn2)c1
**Result** 10

**Query** Same thing, different molecule: Cc1cccc(N(C)c2cc(Nc3ccc(CC(=O)Nc4ccc5ncsc5c4)cc3)ncn2)c1
**Result** 0

**Query** Same thing, different molecule: Nc1nc(Nc2ccccc2)cc(N2CCC(C(=O)NCCc3ccccn3)CC2)n1
**Result** 0

**Query** Same thing, different molecule: Nc1nc(N2CCOCC2)cc(N2CCC(C(=O)NCc3cccs3)CC2)n1
**Result** 0

**Query** Same thing, different molecule: Cc1cccc(Oc2ccnc(N3CCC[C@H]3C(=O)NCCCn3ccnc3)n2)c1
**Result** 0

**Query** Same thing, different molecule: CN(CCCn1ccnc1)C(=O)[C@@H]1CCCN1c1nccc(Nc2ccccc2)n1
**Result** 0

**Query** Same thing, different molecule: Cc1cccc(N(C)c2cc(N3CCN(CC(=O)Nc4nc(-c5ccccc5)cs4)CC3)ncn2)c1
**Result** 0

**Query** Same thing, different molecule: COC[C@@H]1CCCN1C(=O)[C@@H]1CCCN1c1nccc(Nc2ccccc2)n1
**Result** 0

**Query** Same thing, different molecule: Cc1cccc(Oc2ccnc(N3CCC[C@H]3C(=O)NCc3cccnc3)n2)c1
**Result** 0

**Query** Same thing, different molecule: O=C(C1CCN(c2nccc(Nc3ccccc3)n2)CC1)N1CC[C@@H](O)C1
**Result** 0

====

Provide the reported inhibition of each item.
target: RAC-alpha serine/threonine-protein kinase (Homo sapiens); assay: Inhibition of AKT1/PKBalpha at 10 uM by HTRF assay relative to control
The reply should be a number in %, with the unit left off.

**Query** Any idea what inhibition was measured for COC(=O)C(CO)NC(=O)[C@@H]1CCCN1c1nccc(Oc2cccc(C)c2)n1 (some centres undefined) ?
**Result** 0

**Query** Same thing, different compound: Cc1cccc(Oc2ccnc(N3CCN(CC(=O)Nc4cccc5c4CCCC5)CC3)n2)c1
**Result** 1

**Query** Same thing, different compound: COC[C@@H]1CCCN1C(=O)[C@@H]1CCCN1c1nccc(Nc2ccccc2)n1
**Result** 0

**Query** Same thing, different compound: Nc1nc(Nc2ccc3ncsc3c2)cc(N2CCC[C@H]2C(=O)NCCc2cccc(I)c2)n1
**Result** 0

====

molecular target: Ribosomal protein S6 kinase beta-1 (Homo sapiens); experiment: Inhibition of p70S6K at 10 uM by HTRF assay relative to control
Provide the reported inhibition of each item.
The reply should be a number in %, with the unit left off.

**Query** Any idea what inhibition was measured for Nc1nc(N2CCOCC2)cc(N2CCC(C(=O)NCc3cccs3)CC2)n1 ?
**Result** 7

**Query** Same thing, different compound: Cc1cc(C(=O)N2CCN(c3ncnc4c3CN(Cc3ccccc3)CC4)CC2)c(C)n1C
**Result** 7

**Query** Same thing, different compound: Cc1cccc(Oc2ccnc(N3CCC[C@H]3C(=O)NCCCn3ccnc3)n2)c1
**Result** 7
